assay: FRG1 expression reporter modulators in myotubes – cell-based, C2C12 myotubes, firefly/Renilla luciferase, luminescence, FRG1 inhibition for FSHD, primary screen (AID 1084); conditions: FRG1 promoter luciferase, higher = more signal, called active from +8 up or from −8 down
Calls of active or inactive are those of the source.
ATTRIBUTE MEASURED: z-score

Field: example entries. Status: answers known.
COMPOUND: O=C1OCCC/C=C\[C@H]2OC34C=CCN(c5ccc6ccccc6c5)C(=O)[C@H]3N(CCCCCO)C(=O)[C@@H]4C12 (stereo partly specified)
z-score: 0.815 (inactive)
//
COMPOUND: COCCOC(=O)N1C(=O)[C@@]2(c3ccccc31)[C@H](c1ccc(OCCO)cc1)N1[C@H](c3ccccc3)[C@H](c3ccccc3)OC(=O)[C@H]1[C@@H]2C(=O)N1CCc2cc(OC)c(OC)cc2C1
z-score: -1.82 (inactive)
//
COMPOUND: COc1ccc(CCNC(=O)[C@@]2(c3ccc([N+](=O)[O-])cc3)CC(=O)N(CC34CC5CC(CC(C5)C3)C4)[C@@H]2c2ccc(CO)cc2I)cc1
z-score: -1.64 (inactive)
//
COMPOUND: O=c1cccc(-c2ccccc2Cl)o1
z-score: 1.17 (inactive)

QUERY: Dear colleague, I am looking for the recorded z-score of the following compound: COC(=O)C(CC#Cc1ccc2c(c1)[C@]1(C(=O)N2)[C@H](c2ccccc2OCCO)N2[C@H](c3ccccc3)[C@H](c3ccccc3)OC(=O)[C@H]2[C@@H]1C(N)=O)C(=O)OC
RESULT: -1.84 (inactive)

QUERY: Dear colleague, I am looking for the recorded z-score of the following compound: CC(CO)N1C(=O)[C@@H]2C3C(=O)OCCC/C=C\[C@H]3OC23C=CCN(CCN2CCOCC2)C(=O)[C@@H]13 (stereo partly specified)
RESULT: -0.55 (inactive)

QUERY: Dear colleague, I am looking for the recorded z-score of the following compound: COC(=O)[C@H](Cc1ccccc1)N[C@H](/C=C/C1CC1)[C@@H](O)Cc1ccccc1
RESULT: -1.72 (inactive)

QUERY: Dear colleague, I am looking for the recorded z-score of the following compound: CC(C)CCC[C@@H](C)[C@H]1CC[C@@]2(C)C3=C(CC[C@]12C)[C@@]1(C)CC[C@H](OC(=O)c2ccc(C(F)(F)F)nc2)C(C)(C)C1CC3 (stereo partly specified)
RESULT: -1.46 (inactive)

QUERY: Dear colleague, I am looking for the recorded z-score of the following compound: C=C(C)[C@@H]1CC=C(C(O)C2C=CC3C(=O)NC(=O)C3N2Nc2ccc(Cl)cc2Cl)CC1 (stereo partly specified)
RESULT: 1.3 (inactive)

QUERY: Dear colleague, I am looking for the recorded z-score of the following compound: O=C(O)C1N=C(c2ccc(OCCCO)cc2)N(c2ccccc2)O1 (stereo unspecified)
RESULT: 2.09 (inactive)

QUERY: Dear colleague, I am looking for the recorded z-score of the following compound: CC(=O)NCCCC[C@@H]1NC(=O)[C@H]2C[C@@H](C(=O)O)[C@@H](c3ccc(O)cc3)N2C1=O
RESULT: -0.316 (inactive)

QUERY: Dear colleague, I am looking for the recorded z-score of the following compound: COc1ccc([C@H]2OC[C@@H]3CCC(=O)N32)cc1
RESULT: 0.0543 (inactive)
